B1: TPR 5TU (parent)
chain: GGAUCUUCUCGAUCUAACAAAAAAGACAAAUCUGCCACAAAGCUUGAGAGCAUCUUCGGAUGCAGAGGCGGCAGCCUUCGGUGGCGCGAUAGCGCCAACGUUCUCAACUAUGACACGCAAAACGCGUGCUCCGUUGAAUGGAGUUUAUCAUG

variants of: B1; test: polymerase ribozyme fitness, log enrichment relative to wild type (log ratio); higher = more active; in vitro selection for triplet polymerase activity
Fewer inactive variants are shown than the library holds.
Assign class 1 whenever polymerase ribozyme fitness (log ratio) does not fall below -3; assign class 0 whenever it does.

Here are 6 variants together with their reported answers.
{"variant string": "G92C U101G G117C", "label class": "class 1"}
{"variant string": "G83C C116A U146G", "label class": "class 0"}
{"variant string": "A12U U55G A60U G83C A137U G141U", "label class": "class 0"}
{"variant string": "C75G C85U U101C", "label class": "class 0"}
{"variant string": "A40C U53A", "label class": "class 1"}
{"variant string": "G94A C96G", "label class": "class 1"}

Threshold query (polymerase ribozyme fitness (log ratio) >= -3) on C14U C57U
class 1

Threshold query (polymerase ribozyme fitness (log ratio) >= -3) on C8G C35G C105G U144A
class 0

Threshold query (polymerase ribozyme fitness (log ratio) >= -3) on A16C A26U G42U A47C U55A U90G A98G
class 0

Threshold query (polymerase ribozyme fitness (log ratio) >= -3) on A20U A52U A89C
class 0
